Target: Grb2 SH2 (UniProt P62993)
Sequence (P62993 whole entry, looked up): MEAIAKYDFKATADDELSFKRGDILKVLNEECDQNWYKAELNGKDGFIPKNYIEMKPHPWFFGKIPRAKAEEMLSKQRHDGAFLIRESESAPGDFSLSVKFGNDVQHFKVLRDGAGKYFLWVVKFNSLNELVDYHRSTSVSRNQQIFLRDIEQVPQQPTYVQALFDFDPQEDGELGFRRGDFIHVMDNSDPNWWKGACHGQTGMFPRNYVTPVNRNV
Assay: SH2 binding enrichment of the phosphorylated peptide, bacterial display (enrichment ratio); higher = better substrate or ligand; peptides without Tyr show the background
Label N if SH2 binding enrichment falls below 0.9; label Y in every other case.

Reference set, count: 6
GGYTWYCDGKK [PROS1_Y266_C265W] ... N
PARLEYYENEK [IRS1_Y46] ... Y
AFSLKYDQQTQ [SYTL4_Y366_E367D] ... N
GLGGGCGGASG [KRT8_Y54_Y54C] ... Y
FSVDSYDSSVR [KCNQ1_Y461_G460S] ... Y
CTLLPYFSARV [DGKE_Y269_YF] ... N

Does SH2 binding enrichment meet or surpass 0.9 for VASSLYDILAR [GLB1_Y294] ?
N

Does SH2 binding enrichment meet or surpass 0.9 for NHYKIHNLCAE [PTEN_Y68_Y68H] ?
Y

Does SH2 binding enrichment meet or surpass 0.9 for YSKTQYNQVPS [CXADR_Y318] ?
N

Does SH2 binding enrichment meet or surpass 0.9 for SVKVYYKKCWS [EPHA7_Y202] ?
N

###

Target: SHP2-C SH2
Test: SH2 binding enrichment of the phosphorylated peptide, bacterial display (enrichment ratio); higher = better substrate or ligand; peptides without Tyr show the background
ENDPOINT NAME: SH2 binding enrichment
# answer = number (no unit)

IEPCIYIPEDD [XPNPEP3_Y455_G453C] ... 0.821
RASSVFTRSTG [CCR5_Y339_Y339F] ... 0.778
EMFNPCFGLFE [NEDD4L_Y679_Y679C_YF] ... 0.792
YLGRDYLETLM [DUS3L_Y610] ... 0.803
TRSFDYMEGGD [FGF7_Y58_YF] ... 0.791

Reported SH2 binding enrichment, sequence TFINKYQGKLF [HGD_Y249_V245F] : ____
0.78

###

Biological target: Jak2 (UniProt O60674)
Sequence (O60674 whole entry, looked up): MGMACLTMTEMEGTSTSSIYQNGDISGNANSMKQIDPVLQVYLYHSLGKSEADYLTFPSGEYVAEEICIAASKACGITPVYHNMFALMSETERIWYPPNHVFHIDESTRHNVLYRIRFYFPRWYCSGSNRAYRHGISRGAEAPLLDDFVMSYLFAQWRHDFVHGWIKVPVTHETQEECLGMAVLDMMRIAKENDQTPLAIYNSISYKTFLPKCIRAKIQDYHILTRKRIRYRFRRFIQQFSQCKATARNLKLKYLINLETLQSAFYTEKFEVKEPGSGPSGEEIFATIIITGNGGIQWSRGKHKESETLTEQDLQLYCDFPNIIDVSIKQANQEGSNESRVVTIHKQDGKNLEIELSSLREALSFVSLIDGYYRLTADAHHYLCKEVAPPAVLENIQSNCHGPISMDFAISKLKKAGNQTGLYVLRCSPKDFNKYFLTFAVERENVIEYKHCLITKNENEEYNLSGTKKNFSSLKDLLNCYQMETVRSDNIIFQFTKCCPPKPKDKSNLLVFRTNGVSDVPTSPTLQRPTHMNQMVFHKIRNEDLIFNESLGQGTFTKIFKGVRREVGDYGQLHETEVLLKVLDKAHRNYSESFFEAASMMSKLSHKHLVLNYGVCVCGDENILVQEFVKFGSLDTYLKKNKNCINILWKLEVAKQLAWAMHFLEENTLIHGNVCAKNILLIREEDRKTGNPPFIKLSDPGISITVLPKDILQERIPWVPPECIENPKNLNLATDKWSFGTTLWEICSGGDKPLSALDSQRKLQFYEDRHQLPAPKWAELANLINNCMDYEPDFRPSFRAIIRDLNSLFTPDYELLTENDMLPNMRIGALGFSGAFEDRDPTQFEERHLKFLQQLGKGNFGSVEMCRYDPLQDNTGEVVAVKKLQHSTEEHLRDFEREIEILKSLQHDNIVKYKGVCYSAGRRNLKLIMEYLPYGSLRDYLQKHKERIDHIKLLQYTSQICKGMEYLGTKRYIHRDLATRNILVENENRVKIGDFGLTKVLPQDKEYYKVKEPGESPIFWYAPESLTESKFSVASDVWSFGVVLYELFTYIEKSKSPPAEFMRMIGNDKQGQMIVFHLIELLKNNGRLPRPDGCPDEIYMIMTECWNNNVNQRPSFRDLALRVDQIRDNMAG
Experiment: phosphorylation enrichment, bacterial display (enrichment ratio); higher = better substrate or ligand; peptides without Tyr show the background
Entries are grouped by phosphorylation enrichment into these classes: low band: < 0.8; middle band: ≥ 0.8 and < 1; high band: ≥ 1

Reference set, count: 8
DRTGHYLCNAC [GATA1_Y223] ... middle band
MDFRSYPHEFG [RBM10_Y44_R46H_YF] ... low band
LTELGYSFVTT [ACTA1_Y200_R198L] ... high band
KSIEEYLKLVG [RASAL2_Y381] ... low band
HVKHNYECLVY [XRCC5_Y416_I412V] ... high band
PIFLFYLMDLS [ITGB2_Y131_D128Y_YF] ... high band
AACQHYGVHTC [NR4A2_Y275_R278H] ... low band
SLGKGYYDGGC [MC4R_Y35_S36Y] ... high band

Class? Entry: YHIDHYLGKEM [G6PD_Y202_R198H]
low band

Class? Entry: KSPDSYQKILF [ATM_Y1415_L1420F]
low band

Class? Entry: CTLLPYFSARV [DGKE_Y269_YF]
high band

Class? Entry: PESIMYRKFTT [NTRK3_Y744]
low band

Class? Entry: QTEAPYRFIYM [PTPN11_Y511_Q510P]
high band

Class? Entry: KRYRIYHLATS [BRCA2_Y3009]
low band

Class? Entry: HNLPIYEGYAL [ACTA1_Y168_V165L]
low band

Class? Entry: AAVDEYLEHRR [FAM221A_Y17_Y20H]
middle band

Class? Entry: VGSIEYLKREW [KCNMA1_Y885]
middle band

Class? Entry: LAGRFYALRSM [CKB_Y174_K177R_YF]
low band

Class? Entry: LVRPPYSFLAL [FOXI1_Y126_S129L_YF]
low band

Class? Entry: GKTFTYRSVFF [ZNF80_Y200]
low band

Class? Entry: FTGVEYSSCDT [EPHA3_Y937]
middle band

Class? Entry: LLREWYVQDPF [SIX3_Y225_L226V_YF]
middle band

Class? Entry: ILCTVYAFKMR [GRM3_Y754_T758M]
high band

Class? Entry: RSACTYLAPHL [PLK3_Y615_S618P]
high band

Class? Entry: VMLENYSNLVS [ZFP69_Y109]
low band

Class? Entry: PTTKTYFPHFG [HBA1_Y43_D48G]
middle band

Class? Entry: RLLRGYDQFAY [HLA-C_Y137_S140F]
low band

Class? Entry: ALMGPYHGQVL [HADHA_Y343_L342P]
low band

Class? Entry: CLAKMYYSAVE [CP_Y539_D544E]
middle band
